Consider the following variants; for each one, report its protein stability index.
B1: SPATS1 (parent)
chain: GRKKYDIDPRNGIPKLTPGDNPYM

Variants of: B1
Test: protein stability index of a GFP-peptide fusion (GPS, HEK-293T) (PSI 1-6); higher = more stable;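 also: lentivirally expressed fusions sorted by FACS into six bins by GFP to DsRed ratio, PSI derived from sequencing read proportions per bin multiplied by bin number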
Conditions: c terminus: a fixed tail appended

Record summary for K3Q : reported protein stability index = 3.8

Value of measured protein stability index for the entry N21Y : 3.06

# protein stability index of R2I = 3.25

Entry under test: R10M . Its protein stability index was 3.03

Data point: T17N ; protein stability index = 3.48

The value of protein stability index measured for the variant G12M turned out to be 3.08

What the record says about D20S : protein stability index is 3.79

For this variant ( D20H ), measured protein stability index is 3.06

Notebook: D20Y , protein stability index read as 2.49

// protein stability index value for P22S : 3.54

Short answer for D6H : protein stability index was 3.35

Values were extracted from the supplement of paper PMC10567573.
